Tested on: E. coli ATCC 25922
Experiment: MIC against E. coli ATCC 25922, CO-ADD
Type: cell-based
Details: Escherichia coli, ATCC25922; E. coli ATCC 25922; mean of two experiments; read-out: MIC E. c
Endpoint Label: MIC

Ask: Check the records and state MIC for COc1c(CC(C)O)c2c3c(CC(C)O)c(OC)c(=O)c4c(O)cc5c(c6c(cc(O)c(c1=O)c62)OCO5)c43 (stereo not shown) [compound 7, cercosporin]
Reply: > 60 µM

Ask: Check the records and state MIC for C[C@H]1CCC/C=C/[C@@H]2C[C@H](O)C[C@H]2[C@H](O)/C=C/C(=O)O1 [compound 8, brefeldin A]
Reply: > 114 µM

Ask: Check the records and state MIC for C[C@@H]1C[C@H]2O[C@@H]2/C=C\C=C\C(=O)Cc2c(Cl)c(O)cc(O)c2C(=O)O1 [compound 10, radicicol]
Reply: > 88 µM

Ask: Check the records and state MIC for CC1CCCCCC(=O)c2c(O)cc(O)cc2CC(=O)O1 (stereo not shown) [compound 5, curvularin]
Reply: > 109 µM
